assay: organic solvent solubility; assay type: physicochemical; settings: tetrahydrofuran, organic solvent or mixture; room temperature; read-out: solubility in THF (tetrahydrofuran)
Metric Name: solubility

Consider Cc1cc(N2C(=O)NC(=O)C2(C)C)cc(C)c1CCS(=O)(=O)N1CCC2(CC1)N=C(c1ccc(OC(F)(F)F)cc1)NC2=O . Its measured solubility is ≥ 80 mg/mL

###

assay: water solubility; format: physicochemical; settings: 37° C., pH 6 to 7
Metric Name: solubility

Consider Cc1cc(N2C(=O)NC(=O)C2(C)C)cc(C)c1CCS(=O)(=O)N1CCC2(CC1)N=C(c1ccc(OC(F)(F)F)cc1)NC2=O . Its measured solubility is < 1 µg/mL
